All values here come from patent US9873709B2.

Consider the following compounds; for each one, report its pKi.
- Target of assay: isolated recombinant JAK2 kinase domain (Homo sapiens (Human))
- Assay setup: read-out: JAK2 Ki
Give bare numbers, as −log10 of the molar value.

compound="CN1CCC(N(C)C(=O)c2ccc(Nc3nc4c(N5CCC(CO)(c6ccc(C(F)F)cc6)CC5)cccn4n3)cc2)CC1 [Example 1-267]" readout_kind=pKi result_number=9.60

Hi there! I need pKi for each item below, if you can.
1. CN1CCC(N(C)C(=O)c2ccc(Nc3nc4c(Oc5ccccc5)cccn4n3)cc2)CC1 [Example 1-248]
2. CC(C)CN1CCC(N(C)C(=O)Cn2cc(Nc3nc4c(C5=CCN(C(=O)CCC(F)(F)F)CC5)cccn4n3)cn2)CC1 [Example 1-297]
3. CN1CCC(N(C)C(=O)c2ccc(Nc3nc4c(N5CCC(CO)(c6ccc(Cl)cc6)CC5)cccn4n3)cc2)CC1 [Example 1-246]
4. CN1CCC(N(C)C(=O)c2ccc(Nc3nc4c(Oc5ccc6oc(=O)n(Cc7ccccc7)c6c5)cccn4n3)cc2)CC1 [Example 1-264]
5. CSc1ccc(C2(CO)CCN(c3cccn4nc(Nc5ccc(C(=O)N(C)C6CCN(C)CC6)cc5)nc34)CC2)cc1 [Example 1-251]
6. CN1CCC(N(C)C(=O)c2ccc(Nc3nc4c(C5=CCC(CC#N)(c6ccc(Cl)cc6)CC5)cccn4n3)cc2)CC1 (stereo not shown) [Example 1-294]

7.66
8.03
9.48
6.92
9.39
9.40

---

- System: JAK1-dependent STAT6 phosphorylation downstream of IL-13 stimulation in TF-1 human erythroleukemia cells
- Assay method text: cells
- Assay setup: TF-1, read-out: IL-13-pSTAT6 IC50
Categorize each record by its IC50 using low = under 40 nM, moderate = from 40 nM up to 90 nM, high = 90 nM and over

Sample answers from the record:
molecule="O=C(NC1CCCNC1)c1ccc(Nc2nc3c(C4=CCN(C(=O)CCC(F)(F)F)CC4)cccn3n2)cc1 (centres unmarked)" label_value=moderate
molecule=CN1CCCC12CN(C(=O)c1ccc(Nc3nc4c(N5CCC(CO)(c6ccc(Cl)cc6)CC5)cccn4n3)cc1)C2 label_value=low
molecule="O=C(CCC(F)(F)F)N1CC=C(c2cccn3nc(Nc4ccc(C(=O)N5CCCC6(CCCN6)CC5)cc4)nc23)CC1 (centres unmarked)" label_value=high
molecule=O=C(CCC(F)(F)F)N1CC=C(c2cccn3nc(Nc4ccc(C(=O)N5CCC6(CCCNC6)CC5)cc4)nc23)CC1 label_value=moderate
molecule="O=C(CCC(F)(F)F)N1CC=C(c2cccn3nc(Nc4ccc(C(=O)N5CCCC56CCNC6)cc4)nc23)CC1 (centres unmarked)" label_value=high

Input `O=C(c1ccc(Nc2nc3c(N4CCC(O)(c5ccc(Cl)cc5)CC4)cccn3n2)cc1)N1CC2(CCCNC2)C1` ; output its category moderate

For CN(C)C(=O)C1CN(C(=O)c2ccc(Nc3nc4c(C5=CCN(C(=O)CCC(F)(F)F)CC5)cccn4n3)cc2)CCN1C (centres unmarked) , which IC50 bin applies? high

Entry CC(CN(C)C)NC(=O)c1ccc(Nc2nc3c(C4=CCN(C(=O)CCC(F)(F)F)CC4)cccn3n2)cc1 (centres unmarked) belongs to which category? low

---

Please provide measured pKi for the entries that follow.
- Target of assay: isolated recombinant JAK2 kinase domain (Homo sapiens (Human), UniProt O60674)
- Sequence (O60674 849-1124): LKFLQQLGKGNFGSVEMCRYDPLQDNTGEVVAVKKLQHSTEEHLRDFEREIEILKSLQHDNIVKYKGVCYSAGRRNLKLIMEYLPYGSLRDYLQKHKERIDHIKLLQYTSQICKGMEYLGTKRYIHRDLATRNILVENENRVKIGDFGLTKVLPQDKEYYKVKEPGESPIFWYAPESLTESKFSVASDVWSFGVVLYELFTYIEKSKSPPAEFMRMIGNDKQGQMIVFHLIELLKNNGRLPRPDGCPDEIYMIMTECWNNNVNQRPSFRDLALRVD
- Assay setup: read-out: JAK2 Ki; isolated recombinant JAK2 kinase domain, 25 μM ATP
Structures can show the parent of a compound that is named as a salt.
Answers are plain numbers, as −log10 of the molar value.

Below: 2 compounds and their reported pKi.
compound=CN1CCN(C2CCN(C(=O)c3ccc(Nc4nc5c(N6CCC(O)(c7ccc(Cl)cc7)CC6)cccn5n4)cc3)CC2)CC1 readout_kind=pKi result_number=9.07
compound="CNC(=O)C1CN(C(C)C)CCN1C(=O)c1ccc(Nc2nc3c(N4CCC(O)(c5ccc(Cl)cc5)CC4)cccn3n2)cc1 (stereo not shown)" readout_kind=pKi result_number=8.64

Value sought for every listed compound: pKi.
1. N#CCCN1CCN(C(=O)c2ccc(Nc3nc4c(N5CCC(O)(c6ccc(Cl)cc6)CC5)cccn4n3)cc2)CC1
2. CN1CCC(N(C)C(=O)c2ccc(Nc3nc4c(N5CCN6C(=O)COC[C@@H]6C5)cccn4n3)cc2)CC1
3. CN1CCC(N(C)C(=O)c2ccc(Nc3nc4c(N5CCC(O)(c6ccncc6)CC5)cccn4n3)cc2)CC1
4. CN1CCC(N(C)C(=O)c2ccc(Nc3nc4c(N5CCC6(CC5)CNC(=O)O6)cccn4n3)cc2)CC1

8.54
7.54
7.43
8.09

Could you report pKi for every entry in the following list?
1. CN1CCC(N(C)C(=O)c2ccc(Nc3nc4c(N5CCC(C(=O)N6CC(C)(C)C6)CC5)cccn4n3)cc2)CC1
2. O=C(c1ccc(Nc2nc3c(N4CCC(O)(c5ccc(Cl)cc5)CC4)cccn3n2)cc1)N1CCCC1c1ccncc1 (stereo not shown)
3. CC(=O)NCC1(c2ccc(Cl)cc2)CCN(c2cccn3nc(Nc4ccc(C(=O)N(C)C5CCN(C)CC5)cc4)nc23)CC1
4. CN1CCC(N(C)C(=O)c2ccc(Nc3nc4c(N5CCC(C)(C(=O)NCc6ccccc6)CC5)cccn4n3)cc2)CC1
5. CN1CCC(N(C)C(=O)c2ccc(Nc3nc4c(N5CCC(CC(F)F)(c6ccc(Cl)cc6)CC5)cccn4n3)cc2)CC1

1: 5.96; 2: 8.85; 3: 9.42; 4: 7.97; 5: 9.16

Look up pKi for the entries below, preserving their order.
1. NCC1(c2ccccc2)CCN(c2cccn3nc(NC(=O)C4CC4)nc23)CC1 [Example 3-1, hydrochloride]
2. CN1CCC(N(C)C(=O)c2ccc(Nc3nc4c(N5CCN(C(=O)N6CC(C)(C)C6)CC5)cccn4n3)cc2)CC1
3. CN1CCC(N(C)C(=O)c2ccc(Nc3nc4c(N5CCC(C)(c6ccccc6)CC5)cccn4n3)cc2)CC1

[6.84, 8.06, 9.07]
